The measured values listed here are drawn from patent US9359293B2.

Biological target: UniProtKB Q8N6T7
Sequence (Q8N6T7 whole entry): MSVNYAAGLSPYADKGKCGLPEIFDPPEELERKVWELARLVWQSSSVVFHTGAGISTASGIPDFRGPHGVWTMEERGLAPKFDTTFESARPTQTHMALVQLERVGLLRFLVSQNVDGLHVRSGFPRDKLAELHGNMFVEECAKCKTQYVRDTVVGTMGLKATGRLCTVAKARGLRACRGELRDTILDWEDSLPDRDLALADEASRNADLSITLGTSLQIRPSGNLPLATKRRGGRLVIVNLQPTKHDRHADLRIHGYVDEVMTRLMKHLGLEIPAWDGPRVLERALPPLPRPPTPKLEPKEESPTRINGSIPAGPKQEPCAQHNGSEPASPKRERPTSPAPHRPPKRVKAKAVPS
pIC50: −log10 of the molar value.
ASSAY_ENDPOINT: pIC50

compound="CC(=S)NCCCCC(NC(=O)OCc1ccccc1)C(=O)Nc1ccccc1 (stereo not shown) [TA]" target_entity="UniProtKB Q8N6T7" assay_endpoint=pIC50 result="< 3.69"
compound="CCCC(=S)NCCCCC(NC(=O)OCc1ccccc1)C(=O)Nc1ccccc1 (stereo not shown) [TB]" target_entity="UniProtKB Q8N6T7" assay_endpoint=pIC50 result="< 3.69"
compound="CCCCCCC(=S)NCCCCC(NC(=O)OCc1ccccc1)C(=O)Nc1ccccc1 (stereo not shown) [TH]" target_entity="UniProtKB Q8N6T7" assay_endpoint=pIC50 result="< 3.69"
compound="CCCCCCCCCCCCCC(=S)NCCCCC(NC(=O)OCc1ccccc1)C(=O)Nc1ccccc1 (stereo not shown) [TM]" target_entity="UniProtKB Q8N6T7" assay_endpoint=pIC50 result="< 3.69"

---

Target: Sirt3 (Homo sapiens (Human))
Sequence (Q9NTG7 whole entry): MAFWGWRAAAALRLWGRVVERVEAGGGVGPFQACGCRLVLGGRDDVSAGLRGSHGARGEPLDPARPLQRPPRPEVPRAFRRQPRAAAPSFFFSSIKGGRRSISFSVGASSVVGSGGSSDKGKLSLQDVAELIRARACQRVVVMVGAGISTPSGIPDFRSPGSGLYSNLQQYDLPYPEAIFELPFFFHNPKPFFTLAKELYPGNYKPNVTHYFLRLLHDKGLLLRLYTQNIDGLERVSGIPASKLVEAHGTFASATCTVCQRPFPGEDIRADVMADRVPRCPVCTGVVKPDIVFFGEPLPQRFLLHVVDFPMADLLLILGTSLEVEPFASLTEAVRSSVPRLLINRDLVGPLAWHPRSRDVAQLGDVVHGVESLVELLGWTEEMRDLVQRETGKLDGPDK
ASSAY_ENDPOINT: IC50

compound="CC(=S)NCCCCC(NC(=O)OCc1ccccc1)C(=O)Nc1ccccc1 (stereo not shown)" target_entity="Sirt3 (Homo sapiens (Human))" assay_endpoint=IC50 result="> 205 µM"
